# Tested on: Rattus norvegicus
# protocol-description: Toxicity in Sprague-Dawley rat mononeuropathy pain model assessed as effect on contralateral paw pressure at 30 mg/kg, po after 45 mins by paw pressure test
# Assay type: organism-based
# Parameters: dose 30 mg/kg, route oral
# condition: in vivo, 0.75 h
Please provide measured Activity for the entries that follow.
Your answer is read as g, so omit the unit and give the number.

GET /values?item= `[O-][n+]1nc2c(I)cnn2c2cc(OCc3ccccc3)ccc21` &system= Rattus norvegicus returns Activity: 65.1

GET /values?item= `[O-][n+]1nc2c(I)cnn2c2cc(NCc3ccccc3)ccc21` &system= Rattus norvegicus returns Activity: 62.2

GET /values?item= `Cc1cnn2c1n[n+]([O-])c1ccc(NCc3ccccc3)cc12` &system= Rattus norvegicus returns Activity: 62.5

GET /values?item= `Cc1cnn2c1n[n+]([O-])c1ccc(OCc3ccccc3)cc12` &system= Rattus norvegicus returns Activity: 60.5

GET /values?item= `CCCCCOc1ccc2c(c1)n1ncc(I)c1n[n+]2[O-]` &system= Rattus norvegicus returns Activity: 63.1

GET /values?item= `CN(Cc1ccccc1)c1ccc2c(c1)n1ncc(I)c1n[n+]2[O-]` &system= Rattus norvegicus returns Activity: 60.8

GET /values?item= `O=C(OCc1cccs1)c1cnn2c1n[n+]([O-])c1ccc(Cl)cc12` &system= Rattus norvegicus returns Activity: 60.9

GET /values?item= `O=C(c1cccs1)c1cnn2c1n[n+]([O-])c1ccc(Oc3ccccc3)cc12` &system= Rattus norvegicus returns Activity: 61.2

GET /values?item= CC(COc1ccc2c(c1)n1ncc(I)c1n[n+]2[O-])c1ccccc1 (racemic) &system= Rattus norvegicus returns Activity: 59.2

----------
# protocol-description: Displacement of [3H]Ro151788 from GABA(A)/BzR in bovine cerebral cortex membrane
# Format: cell membranes, Bos taurus
parameter-measured: Ki

response.value for `COc1ccccc1COc1ccc2c(c1)n1ncc(C)c1n[n+]2[O-]` (field: Ki) = 3.02 nM

response.value for `Cc1cnn2c1nnc1ccc(OCc3ccccc3)cc12` (field: Ki) = 1.6 nM

response.value for `O=C(OCc1cccs1)c1cnn2c1n[n+]([O-])c1ccc(Cl)cc12` (field: Ki) = 6.8 nM

response.value for `CN(Cc1ccccc1)c1ccc2c(c1)n1ncc(I)c1n[n+]2[O-]` (field: Ki) = 1.02 nM

response.value for `Ic1cnn2c1nnc1ccc(NCc3ccccc3)cc12` (field: Ki) = 0.71 nM

----------
Please provide measured Activity for the entries that follow.
# Tested on: Rattus norvegicus
# protocol-description: Toxicity in Sprague-Dawley rat mononeuropathy pain model assessed as effect on contralateral paw pressure at 30 mg/kg, po after 30 mins by paw pressure test
# Assay type: organism-based
# Design: dose 30 mg/kg, route oral
# condition: in vivo, 0.5 h
Your answer is read as g, so omit the unit and give the number.

GET /values?item= `[O-][n+]1nc2c(I)cnn2c2cc(NCc3ccccc3)ccc21` &system= Rattus norvegicus returns Activity: 58.9

GET /values?item= `O=C(OCc1cccs1)c1cnn2c1n[n+]([O-])c1ccc(Cl)cc12` &system= Rattus norvegicus returns Activity: 57.8

GET /values?item= `[O-][n+]1nc2c(I)cnn2c2cc(OCc3ccccc3)ccc21` &system= Rattus norvegicus returns Activity: 59.2

GET /values?item= `CN(Cc1ccccc1)c1ccc2c(c1)n1ncc(I)c1n[n+]2[O-]` &system= Rattus norvegicus returns Activity: 62.8

GET /values?item= `CCCCCOc1ccc2c(c1)n1ncc(I)c1n[n+]2[O-]` &system= Rattus norvegicus returns Activity: 61.2

GET /values?item= CC(COc1ccc2c(c1)n1ncc(I)c1n[n+]2[O-])c1ccccc1 (racemic) &system= Rattus norvegicus returns Activity: 61.7

GET /values?item= `Cc1cnn2c1n[n+]([O-])c1ccc(NCc3ccccc3)cc12` &system= Rattus norvegicus returns Activity: 63.2

GET /values?item= `Cc1cnn2c1n[n+]([O-])c1ccc(OCc3ccccc3)cc12` &system= Rattus norvegicus returns Activity: 63.8

GET /values?item= `O=C(c1cccs1)c1cnn2c1n[n+]([O-])c1ccc(Oc3ccccc3)cc12` &system= Rattus norvegicus returns Activity: 57.8

----------
# Test system: Rattus norvegicus
# protocol-description: Toxicity in Sprague-Dawley rat mononeuropathy pain model assessed as effect on contralateral paw pressure at 30 mg/kg, po after 15 mins by paw pressure test
# Format: organism-based
# Design: dose 30 mg/kg, route oral
# condition: in vivo, 0.25 h
Quick rule for you: Activity under 60 g gets t, anything else gets f.

Exam item: Just wondering, is Activity of `CCCCCOc1ccc2c(c1)n1ncc(I)c1n[n+]2[O-]` below 60 g?
Marked response: t

Exam item: Just wondering, is Activity of `[O-][n+]1nc2c(I)cnn2c2cc(OCc3ccccc3)ccc21` below 60 g?
Marked response: f

Exam item: Just wondering, is Activity of `Cc1cnn2c1n[n+]([O-])c1ccc(OCc3ccccc3)cc12` below 60 g?
Marked response: f

----------
# protocol-description: Displacement of [3H]Ro151788 from GABA(A)/BzR in bovine cerebral cortex membrane
# Assay type: cell membranes, Bos taurus
Classes (Ki): LOW = under 2 nM, MEDIUM = from 2 nM up to 10 nM, HIGH = 10 nM and over

Exam item: Hi there! Could you help me figure out the category for `COc1ccccc1CNc1ccc2c(c1)n1ncc(C)c1n[n+]2[O-]` please?
Marked response: LOW

Exam item: Hi there! Could you help me figure out the category for `[O-][n+]1nc2c(I)cnn2c2cc(Cl)ccc21` please?
Marked response: HIGH

Exam item: Hi there! Could you help me figure out the category for `Cc1cnn2c1n[n+]([O-])c1ccc(OCc3ccccc3)cc12` please?
Marked response: MEDIUM

Exam item: Hi there! Could you help me figure out the category for `Cc1cnn2c1n[n+]([O-])c1ccc(Cl)cc12` please?
Marked response: HIGH

Exam item: Hi there! Could you help me figure out the category for `[O-][n+]1nc2c(I)cnn2c2cc(NCc3ccccc3)ccc21` please?
Marked response: LOW

Exam item: Hi there! Could you help me figure out the category for Cc1cnn2c1n[n+]([O-])c1ccc(OCC(C)c3ccccc3)cc12 (racemic) please?
Marked response: HIGH

Exam item: Hi there! Could you help me figure out the category for `Cc1cnn2c1nnc1ccc(NCc3ccccc3)cc12` please?
Marked response: MEDIUM

Exam item: Hi there! Could you help me figure out the category for `COc1ccccc1CNc1ccc2c(c1)n1ncc(I)c1n[n+]2[O-]` please?
Marked response: LOW

Exam item: Hi there! Could you help me figure out the category for `[O-][n+]1nc2c(I)cnn2c2cc(NCCc3ccccc3)ccc21` please?
Marked response: HIGH

Exam item: Hi there! Could you help me figure out the category for `Cc1cnn2c1n[n+]([O-])c1ccc(NCc3ccccc3)cc12` please?
Marked response: MEDIUM

Exam item: Hi there! Could you help me figure out the category for `[O-][n+]1nc2c(I)cnn2c2cc(NCc3ccc(Cl)cc3)ccc21` please?
Marked response: MEDIUM

----------
# System: Mus musculus
# protocol-description: Analgesic activity in Swiss albino mouse abdominal constriction model assessed as decrease in number of acetic acid-induced writhing at 30 to 60 mg/kg, po after 30 mins
# Type: functional, organism-based
# condition: Abdomen
Activity calls are given as the source filed them. The calls are words filed in the database; no cut-off is given here.
parameter-measured: Activity

response.value for `Cc1cnn2c1n[n+]([O-])c1ccc(NCc3ccccc3)cc12` (field: Activity) = inactive

response.value for `CCCCCOc1ccc2c(c1)n1ncc(I)c1n[n+]2[O-]` (field: Activity) = inactive

response.value for `CN(Cc1ccccc1)c1ccc2c(c1)n1ncc(I)c1n[n+]2[O-]` (field: Activity) = inactive

response.value for CC(COc1ccc2c(c1)n1ncc(I)c1n[n+]2[O-])c1ccccc1 (racemic) (field: Activity) = inactive

----------
# System: Rattus norvegicus
# protocol-description: Toxicity in Sprague-Dawley rat mononeuropathy pain model assessed as effect on contralateral paw pressure at 30 mg/kg, po after 15 mins by paw pressure test
# Type: organism-based
# Design: dose 30 mg/kg, route oral
# condition: in vivo, 0.25 h
parameter-measured: Activity (g)
Your answer is read as g, so omit the unit and give the number.

GET /values?item= `O=C(OCc1cccs1)c1cnn2c1n[n+]([O-])c1ccc(Cl)cc12` &system= Rattus norvegicus returns Activity: 59.3

GET /values?item= `[O-][n+]1nc2c(I)cnn2c2cc(NCc3ccccc3)ccc21` &system= Rattus norvegicus returns Activity: 61.7

GET /values?item= `Cc1cnn2c1n[n+]([O-])c1ccc(NCc3ccccc3)cc12` &system= Rattus norvegicus returns Activity: 61.5

GET /values?item= `CN(Cc1ccccc1)c1ccc2c(c1)n1ncc(I)c1n[n+]2[O-]` &system= Rattus norvegicus returns Activity: 61.7

GET /values?item= CC(COc1ccc2c(c1)n1ncc(I)c1n[n+]2[O-])c1ccccc1 (racemic) &system= Rattus norvegicus returns Activity: 58.8

GET /values?item= `O=C(c1cccs1)c1cnn2c1n[n+]([O-])c1ccc(Oc3ccccc3)cc12` &system= Rattus norvegicus returns Activity: 60.6
